Readings of OD450 for the listed binders
# assayed-system: T1, murine CD22 protein (ACROBiosystems, SI2-M52Ha) (murine, UniProt P35329 22-708)
# T1 construct: extracellular domain; also called murine CD22-ECD; murine CD22-ECD-His
# T1 sequence (looked up): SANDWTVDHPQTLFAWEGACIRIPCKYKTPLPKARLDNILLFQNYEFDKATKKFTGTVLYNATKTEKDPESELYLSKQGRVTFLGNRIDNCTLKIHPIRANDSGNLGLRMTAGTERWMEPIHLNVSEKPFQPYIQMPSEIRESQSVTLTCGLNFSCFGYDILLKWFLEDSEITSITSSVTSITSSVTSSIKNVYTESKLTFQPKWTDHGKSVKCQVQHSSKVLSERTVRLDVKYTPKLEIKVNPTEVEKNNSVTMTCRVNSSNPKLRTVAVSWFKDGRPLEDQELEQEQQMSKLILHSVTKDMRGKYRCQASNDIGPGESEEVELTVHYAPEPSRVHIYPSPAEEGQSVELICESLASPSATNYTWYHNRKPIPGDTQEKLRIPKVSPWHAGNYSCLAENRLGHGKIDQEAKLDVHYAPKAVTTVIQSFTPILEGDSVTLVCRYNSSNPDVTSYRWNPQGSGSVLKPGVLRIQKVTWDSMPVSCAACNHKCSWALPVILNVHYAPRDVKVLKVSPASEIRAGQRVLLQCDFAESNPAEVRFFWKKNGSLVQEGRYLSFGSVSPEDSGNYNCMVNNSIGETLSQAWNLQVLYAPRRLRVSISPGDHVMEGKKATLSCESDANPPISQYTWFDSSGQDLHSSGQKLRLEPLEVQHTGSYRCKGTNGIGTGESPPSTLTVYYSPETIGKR
# test-details: ELISA, coated murine CD22, 0.1 nM Ab

[
  {
    "binder": "F1.7.6 human-murine chimeric antibody (antibody, human IgG1, kappa, V domains shown, Chimeric, human IgG1 / kappa; VL tied by name) VH: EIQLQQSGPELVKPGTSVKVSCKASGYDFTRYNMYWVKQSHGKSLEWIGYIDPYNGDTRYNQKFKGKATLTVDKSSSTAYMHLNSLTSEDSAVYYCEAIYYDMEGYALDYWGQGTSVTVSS VL: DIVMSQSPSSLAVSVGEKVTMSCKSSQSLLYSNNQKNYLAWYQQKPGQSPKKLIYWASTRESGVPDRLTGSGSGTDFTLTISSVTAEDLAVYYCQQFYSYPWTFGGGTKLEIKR",
    "value-unit": "OD450",
    "OD450": 0.06
  },
  {
    "binder": "F2.205.9 human-murine chimeric antibody (antibody, human IgG1, lambda, V domains shown, Chimeric, human IgG1 / lambda; VL tied by name) VH: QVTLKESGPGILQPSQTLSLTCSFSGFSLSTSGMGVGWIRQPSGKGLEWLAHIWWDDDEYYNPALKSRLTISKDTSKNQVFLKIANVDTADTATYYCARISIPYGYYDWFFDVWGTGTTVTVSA VL: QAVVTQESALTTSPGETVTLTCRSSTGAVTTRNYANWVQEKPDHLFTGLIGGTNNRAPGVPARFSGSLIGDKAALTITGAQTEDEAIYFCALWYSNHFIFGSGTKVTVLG",
    "value-unit": "OD450",
    "OD450": 0.05
  },
  {
    "binder": "F2.70.2 human-murine chimeric antibody (antibody, human IgG1, lambda, V domains shown, Chimeric, human IgG1 / lambda) VH: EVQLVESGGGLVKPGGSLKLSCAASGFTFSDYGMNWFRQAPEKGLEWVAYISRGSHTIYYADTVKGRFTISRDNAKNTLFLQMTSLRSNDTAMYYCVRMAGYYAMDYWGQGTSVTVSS VL: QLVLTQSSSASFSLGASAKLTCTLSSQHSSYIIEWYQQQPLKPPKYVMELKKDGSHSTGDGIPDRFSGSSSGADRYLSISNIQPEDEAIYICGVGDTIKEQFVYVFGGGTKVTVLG",
    "value-unit": "OD450",
    "OD450": 0.06
  }
]
